# System: Plasmodium falciparum
# Method Notes: NOVARTIS: Inhibition of Plasmodium falciparum W2 (drug-resistant) proliferation in erythrocyte-based infection assay
# Type: functional, organism-based
# Recorded Conditions: Plasmodium falciparum, W2; read-out: EC50
pEC50: −log10 of the molar value.
// reported pEC50 for each item listed
Measured Attribute: pEC50

1) CC(C)COc1nc(-c2ccccc2)n(S(=O)(=O)c2cccc3cccnc23)n1 : 8.34
2) CCOC(=O)c1cnc2ccc(OC)cc2c1Cl : 5.90
3) CCOc1ccc2[nH]c3c(NCCCN4CCOCC4)ncnc3c2c1 : 6.57
4) CC(C)c1ccc2c(c1)c1c3c([n+](C)ccn32)CCC1 : 5.58
5) CCC(c1nc2cc(Cl)ccc2c(=O)n1CC)N(CC)C(=O)c1ccc2ccccc2c1 (centres undefined) : 5.91
6) COc1ccc(OCC(O)CNC2CCN(CC(O)COc3ccc(Cl)c(Cl)c3)CC2)cc1 (centres undefined) : 6.28
7) COc1ccccc1N1CCN(C2CCN(C3CCC(c4ccccc4)CC3)CC2)CC1 (centres undefined) : 6.17
8) COc1cc(C(=O)NC2CC2)ccc1OC1CCN(CC(c2ccccc2)c2ccccc2)CC1 : 7.73
9) CN(C)c1ccc(C(=Cc2cc(-c3ccccc3)cc(-c3ccccc3)[o+]2)c2ccc(N(C)C)cc2)cc1 : 6.05
10) COc1ccc(N=Nc2nc3ccc(Br)cc3n2C)cc1 : 6.70
11) CN1/C(=C/c2cccc[n+]2C)Sc2ccccc21 : 6.65
12) CCCc1nc2ccc(NC(=O)c3ccco3)cc2c(=O)n1Cc1ccc(-c2ccccc2)cc1 : 6.37
13) COc1ccc2c(c1)C(=NN=C(N)N)c1cc(OC)ccc1-2 : 6.75
14) NCCC(=O)N1CC(c2ccccc2)c2ccccc2C1CN1CCCCC1 (centres undefined) : 6.64
15) CC(=O)N(C)C1=C(N2CCOCC2)C(=O)c2ccccc2C1=O : 6.54
16) N#Cc1c(-c2ccccc2)cc(N2CCN(Cc3ccc(Cl)cc3)CC2)n2c1nc1ccccc12 : 5.77
17) O=C(NC(CN1CCCC1)c1ccccc1)C1CCCCN1S(=O)(=O)c1ccc(Cl)cc1 (centres undefined) : 6.29
18) Cc1ccc(C(=O)Oc2ccccc2-c2nc3ccccn3c2NC(C)(C)CC(C)(C)C)cc1[N+](=O)[O-] : 7.17
19) CC(=O)N/C(=C\c1ccc(OC(F)F)cc1)C(=O)O : 6.36
20) COC(=O)c1ccccc1NC(=O)COc1cccc(OC)c1 : 5.73

----------
# Method Notes: NOVARTIS: Cytotoxicity against human hepatocellular carcinoma cell line (Huh7)
# Format: toxicity, cell-based, Huh-7
# Recorded Conditions: Huh7 cells (hepatocellular carcinoma cell line)
Measured Attribute: CC50

1) C=CCN1C=CC(=Cc2sc3ccccc3[n+]2C)c2ccccc21 : > 9.37 µM
2) CCCC(C(=O)OCC)C(C)=NNc1ccccc1[N+](=O)[O-] (stereo not drawn) : > 100 µM
3) CC(CCc1ccccc1)N1CC(c2cccc([N+](=O)[O-])c2)OC1=S (stereo not drawn) : 32.8 µM

----------
# Test system: Plasmodium falciparum
# Method Notes: NOVARTIS: Inhibition of Plasmodium falciparum W2 (drug-resistant) proliferation in erythrocyte-based infection assay
# Assay type: functional, organism-based
# Recorded Conditions: Plasmodium falciparum, W2; read-out: EC50
// assign MET if EC50 falls strictly below 300 nM, else NOT MET (ties count as NOT MET)

1) Cc1ccc(N2C(=O)C3C(C2=O)C2(c4ccccc4)C(=O)C3(c3ccccc3)C(c3ccccc3)=C2c2ccccc2)c([N+](=O)[O-])c1 (stereo unspecified) : NOT MET
2) O=C(CCc1ccccc1)NCCCCNc1ccnc2cc(Cl)ccc12 : MET
3) CCn1c(SCC(=O)NCCc2ccccc2)nc2sc3c(c2c1=O)CCN(C)C3 : NOT MET
4) Cc1cc(OC(C)C(=O)N2CCc3ccccc32)ccc1Cl (stereo unspecified) : NOT MET
5) Brc1ccc(Nc2nc(NCC3CCCO3)c3ccccc3n2)cc1 (stereo unspecified) : NOT MET
6) COc1cccc(C2CC3(CC(C)(C)NC(=S)N3)Oc3cc(OC(C)=O)c(Cl)cc32)c1 (stereo unspecified) : NOT MET
7) CCN(c1ccccc1)S(=O)(=O)c1ccc(F)c(C(=O)Nc2c(C)cccc2C)c1 : NOT MET
8) Cn1c(=NC(=O)c2ccc(S(=O)(=O)N3CCCCC3)cc2)sc2cc(Cl)ccc21 : MET
9) COc1cccc(-c2ccc(O)c(CNCCc3cccc(F)c3)c2)n1 : NOT MET
10) CCC(C)(C)c1ccc(OCC(O)CNCc2ccccc2)c(C(C)(C)CC)c1 (stereo unspecified) : MET
11) C(=NNc1nc2ccccc2[nH]1)c1c[nH]c2ccccc12 : NOT MET
